The reported numbers originate from patent US11590116B2.

- system name: recombinant human ALK5 (TGF-βR1) protein (Homo sapiens, UniProt P36897)
- Construct: purchased Life Technologies PR9075A
- Sequence (P36897 34-503): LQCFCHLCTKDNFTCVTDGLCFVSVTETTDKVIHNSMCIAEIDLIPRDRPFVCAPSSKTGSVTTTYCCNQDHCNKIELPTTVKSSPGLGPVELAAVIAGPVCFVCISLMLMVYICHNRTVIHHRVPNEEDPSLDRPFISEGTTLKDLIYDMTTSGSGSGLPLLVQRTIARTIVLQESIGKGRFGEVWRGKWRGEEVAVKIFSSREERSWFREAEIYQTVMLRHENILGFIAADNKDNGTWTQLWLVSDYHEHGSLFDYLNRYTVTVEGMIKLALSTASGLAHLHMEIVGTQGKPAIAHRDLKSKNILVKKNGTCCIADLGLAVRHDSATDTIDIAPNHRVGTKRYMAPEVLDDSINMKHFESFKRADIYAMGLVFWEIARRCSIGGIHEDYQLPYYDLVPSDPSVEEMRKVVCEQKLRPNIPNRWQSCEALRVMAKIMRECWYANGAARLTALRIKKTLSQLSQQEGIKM
- experimental protocol: Biochemical ALK5 (TGF-βR1) assay to measure pKi (LANCE Ultra ULight kinase assay)
- applied conditions: apparent pKi from pIC50 by Cheng-Prusoff, read-out: ALK5 pKi (converted)
result type: Ki

Exercise: What value of measured Ki is listed for Cc1cccc(-c2[nH]cnc2-c2ccc3ncc(-c4cccc(NC5CNC5)n4)cc3c2)n1 [Compound 180] ?
Solution: 0.0398 to 0.316 nM

Exercise: What value of measured Ki is listed for Cc1cccc(-c2n[nH]cc2-c2ccc3nccc(N(C)CCCN4CCOCC4)c3n2)n1 [Compound 848] ?
Solution: 0.0398 to 0.316 nM

Exercise: Record request: Ki value, item Cc1cccc(-c2nnn(C)c2-c2ccc3ncc(N4CCNCC4)cc3c2)n1 [Compound 86]
Solution: 0.398 to 3.16 nM

Exercise: Item Cc1nc(-c2nc3ccccn3c2-c2ccc3ncc(NCCN4CCN(C(C)C)CC4)cc3c2)ccc1F [Compound 620] has what recorded Ki?
Solution: 0.0398 to 0.316 nM

Exercise: # input molecule: Cc1cccc(-c2n[nH]cc2-c2ccc3ncc(C(N)=O)cc3n2)n1 [Compound 607] ; wanted: its Ki
Solution: 0.0398 to 0.316 nM

Exercise: Look up Ki for this molecule: Cc1cccc(-c2[nH]cnc2-c2ccc3ncc(-c4csc(C(=O)O[C@@H]5CCNC5)n4)cc3c2)n1 [Compound 1104]
Solution: 0.0398 to 0.316 nM

Exercise: What value of Ki has been reported for the following molecule? Cc1cccc(-c2n[nH]cc2-c2ccc3ncc(-c4cn[nH]c4)cc3n2)n1 [Compound 233]
Solution: < 0.0316 nM

Exercise: Can you look up the measured Ki of Cc1cccc(-c2n[nH]cc2-c2ccc3ncc(-c4nnn5c4NCCC5)cc3n2)n1 [Compound 550] for me?
Solution: 0.0398 to 0.316 nM

Exercise: Query (molecule): Cc1cccc(-c2n[nH]cc2-c2ccc3ncc(C4=CCNC4)cc3n2)n1 [Compound 588] ; field requested: Ki
Solution: 0.0398 to 0.316 nM

Exercise: Need Ki, item Cc1cccc(-c2[nH]cnc2-c2ccc3ncc(NCCN4CCN[C@@H](CO)C4)cc3c2)n1 [Compound 708]
Solution: 0.0398 to 0.316 nM

Exercise: Please look up its Ki: Cc1cccc(-c2[nH]ncc2-c2ccc3ncc(C(=O)O[C@@H]4CCN(C)C4)cc3n2)n1 [Compound 421]
Solution: 0.398 to 3.16 nM

Exercise: Fill blank: measured Ki of the molecule Cc1cccc(-c2n[nH]cc2-c2ccc3ncc(N4CC(C)NC(C)C4)cc3n2)n1 (centres unmarked) [Compound 28] is ____.
Solution: < 0.0316 nM

Exercise: // returns reported Ki for input Cc1cccc(-c2[nH]cnc2-c2ccc3ncc(N4CCCNCC4)cc3n2)n1 [Compound 307]
Solution: 0.0398 to 0.316 nM

Exercise: Looking for the measured Ki of Cc1nc(-c2n[nH]cc2-c2ccc3ncc(-c4cn[nH]c4)cc3c2)ccc1F [Compound 449] , can you help?
Solution: < 0.0316 nM

Exercise: # query: Ki of entry Cc1cccc(-c2n[nH]cc2-c2ccc3nccc(N4CCC(N5CCOCC5)CC4)c3n2)n1 [Compound 847]
Solution: 0.0398 to 0.316 nM

Exercise: I am curious: what Ki value has been reported for Cc1cccc(-c2n[nH]cc2-c2ccc3ncc(N4CCN(CC#N)CC4)cc3n2)n1 [Compound 299] ?
Solution: < 0.0316 nM

Exercise: Data request, read-out Ki, for CNC1CCCN(c2cnc3ccc(-c4c[nH]nc4-c4cccc(C)n4)nc3c2)C1 (centres unmarked) [Compound 606]
Solution: 0.0398 to 0.316 nM
